FYI, the data here is from PubChem BioAssay AID2717.

Experimental Details: cancer stem cell viability inhibitors, primary screen, luminescence (AID 2717)
Test Conditions: cancer stem cell-like cells viability, at 7.5 µM, hits give high values
The campaign covered roughly 300,000 compounds. About 3,200 (1.1%) were called active. The entries come from a sample that favours actives as a whole.

Molecule: CCOc1ccc2nc(NC(=O)c3cc([N+](=O)[O-])ccc3N3CCOCC3)sc2c1
inhibition, %: 36.3
--
Molecule: O=C(CN1C(=O)c2ccccc2C1=O)NCc1ccc(C(=O)O)cc1
inhibition, %: 12.4
--
Molecule: Cc1ccc(S(=O)(=O)NCC(=O)NNC(=O)c2ccc(Br)cc2)cc1C
inhibition, %: 1.69
--
Molecule: Cc1ccc(C(=O)/C=C/Nc2ccc(S(=O)(=O)Nc3onc(C)c3C)cc2)cc1
inhibition, %: 6.82
--
Molecule: COc1ccccc1OCc1nc2ccccc2s1
inhibition, %: 5.53
--
Molecule: O=C(COC(=O)/C=C/c1cccc(Cl)c1)NCc1cccs1
inhibition, %: 2.73
--
Molecule: CC(C)c1ccc(NC(=S)NNc2ccc(Cl)c(C(=O)O)c2)cc1
inhibition, %: -18.1
--
Molecule: COc1cccc2sc(Nc3nc(C)c(C(C)=O)s3)nc12
inhibition, %: 17.8
--
Molecule: COc1cc(OC)cc(C(=O)NNC(=O)Cc2cccs2)c1
inhibition, %: -7.32
--
Molecule: COc1ccc(NS(=O)(=O)c2ccc(NC(=S)NC(=O)/C=C/c3ccc(C)cc3)cc2)nn1
inhibition, %: 9.35
--
Molecule: CC[C@@H]1Cc2cc(O)ccc2C2=C1c1ccc(O)cc1C[C@H]2CC
inhibition, %: 102
--
Molecule: O=C(NC(Nc1nc2ccc([N+](=O)[O-])cc2s1)(C(F)(F)F)C(F)(F)F)c1ccccc1
inhibition, %: 98.4
--
Molecule: CC(C)N(C(=O)c1ccc(-c2ccccc2F)cc1)C(C)C
inhibition, %: -3.5
--
Molecule: Cc1cc(-c2n[nH]c(=S)n2/N=C/C(Br)=C/c2ccccc2)n[nH]1
inhibition, %: 82.9
--
Molecule: COc1cccc(CNC(C)C(=O)Nc2ccc(S(=O)(=O)N3CCCC3)cc2)c1 (configuration not stated)
inhibition, %: 10.7
--
Molecule: CCOC(=O)C1CCCN(C(=O)CSc2nnc3nc(C)cc(C)n23)C1 (configuration not stated)
inhibition, %: 8.11
--
Molecule: CCC(=O)NC(Nc1nc2ccc(C)cc2s1)(C(=O)OC)C(F)(F)F (configuration not stated)
inhibition, %: 6
--
Molecule: COc1cc(SC#N)ccc1N=Cc1c(C)[nH]n(-c2ccc(C)cc2)c1=O
inhibition, %: 84.4
--
Molecule: Cc1ccc(C)c(NC(=S)NNC(=O)c2csc(C)c2)c1
inhibition, %: 3.04
--
Molecule: Cc1ccc(-n2[nH]c(C)c(/C=N/N3C(=O)c4cccc5cccc(c45)C3=O)c2=O)cc1
inhibition, %: 24.4
--
Molecule: S=c1[nH]nc(-c2cccnc2)n1/N=C/C(Cl)=C\c1ccccc1
inhibition, %: 8.61
--
Molecule: S=c1[nH]nc(-c2cc(-c3ccccc3)n[nH]2)n1/N=C/c1c2ccccc2cc2ccccc12
inhibition, %: 48

====

Entries and their inhibition
Experimental Details: cancer stem cell viability inhibitors, primary screen, luminescence (AID 2717)
Test Conditions: cancer stem cell-like cells viability, at 7.5 µM, hits give high values
The whole screen tested about 300,000 compounds, of which about 3,200 (1.1%) were called active. Many of the other results were omitted from the sample, so actives are more common in it than they were.

Compound: NC(=O)Nc1ccc(C(=O)OCC(=O)NC2CCCc3ccccc32)cc1 (stereo not given)
inhibition [%]: 3.37
--
Compound: N#Cc1nc(-c2cccc3ccccc23)oc1N
inhibition [%]: 8.01
--
Compound: COc1ccc2sc(-c3ccc(N(C)C)cc3)c(-c3ccc4cc[nH]c4c3)c2c1
inhibition [%]: 83.3
--
Compound: CCN(CC)CC(=O)c1c[nH]c2ccc(OC)cc12
inhibition [%]: 3.22
--
Compound: COc1cc(OC)cc(-c2c(-c3cccs3)c3cc(-c4ccc(OC)cc4F)ccc3n2C)c1
inhibition [%]: -6.57
--
Compound: O=C(OCC(=O)N1CCCCC1)c1ccc(OC(F)(F)F)cc1
inhibition [%]: -0.262
--
Compound: CC(C)(C)OC(=O)C[C@@H]1C/C=C\C[C@@H](CC(=O)NCCO)C(=O)N[C@H](Cc2c[nH]c3ccccc23)COC1=O
inhibition [%]: -11.3
--
Compound: CCNC(=S)N1CCN(S(=O)(=O)c2ccc(Cl)s2)CC1
inhibition [%]: -8.45
--
Compound: CC(C)(C)OC(=O)C[C@@H]1C/C=C\C[C@@H](CC(=O)N[C@H](CO)Cc2ccccc2)C(=O)NCCOC1=O
inhibition [%]: -6.88
--
Compound: COc1cc(OC)cc(-c2sc3ccc(OC)cc3c2-c2ccc3cc[nH]c3c2)c1
inhibition [%]: 137
